TEST TARGET: CDK11A (Homo sapiens, UniProt Q9UQ88)
PROTOCOL CONDITIONS: displacement of SNS-032-Atto590 probe (0.002 μM) from CDK11A-p58 (0.032 uM), fluorescence polarization
Counter-ions that a name gives are not always drawn.
ENDPOINT: DC50

Lookup: // lookup DC50 | system=CDK11A (Homo sapiens, UniProt Q9UQ88) | key= O=C(Nc1n[nH]c2ccc(-c3c(F)cccc3Cl)cc12)C1CCCNC1 (stereo not shown) [compound 165, hydrochloride]
Found: 36 nM

Lookup: Same again, this time with O=C(Nc1n[nH]c2ccc(-c3c(Cl)cccc3Cl)cc12)[C@@H]1CCNC1 [compound 167, hydrochloride]
Found: 27 nM

Lookup: Next entry: CNC(=O)c1ccc(Cl)c(-c2ccc3[nH]nc(NC(=O)[C@@H]4CCNC4)c3c2)c1 [cpd 39, hydrochloride]
Found: 44 nM

Lookup: Could you do the same for C[C@@H]1CC[C@@H](C(=O)Nc2n[nH]c3ccc(-c4c(Cl)cccc4Cl)cc23)CN1 [compound 178, trifluoroacetate] , please?
Found: 28 nM

Lookup: Request: CNC1CC(C(=O)Nc2n[nH]c3ccc(-c4cc(C#N)ccc4Cl)cc23)C1 (stereo not shown) [compound 146, hydrochloride]
Found: 23 nM

Lookup: Let us now turn to CN1CCC(C(=O)Nc2n[nH]c3ccc(-c4cc(C(F)(F)F)ccc4Cl)cc23)CC1 [cpd 94, hydrochloride]
Found: 592 nM

Lookup: Similarly, Cc1ccc(-c2ccc3[nH]nc(NC(=O)C4CCN(C)CC4)c3c2)c(F)c1F [compound 132, hydrochloride] ?
Found: 409 nM

###

TEST TARGET: UniProtKB Q9UQ88
Sequence (Q9UQ88 346-783): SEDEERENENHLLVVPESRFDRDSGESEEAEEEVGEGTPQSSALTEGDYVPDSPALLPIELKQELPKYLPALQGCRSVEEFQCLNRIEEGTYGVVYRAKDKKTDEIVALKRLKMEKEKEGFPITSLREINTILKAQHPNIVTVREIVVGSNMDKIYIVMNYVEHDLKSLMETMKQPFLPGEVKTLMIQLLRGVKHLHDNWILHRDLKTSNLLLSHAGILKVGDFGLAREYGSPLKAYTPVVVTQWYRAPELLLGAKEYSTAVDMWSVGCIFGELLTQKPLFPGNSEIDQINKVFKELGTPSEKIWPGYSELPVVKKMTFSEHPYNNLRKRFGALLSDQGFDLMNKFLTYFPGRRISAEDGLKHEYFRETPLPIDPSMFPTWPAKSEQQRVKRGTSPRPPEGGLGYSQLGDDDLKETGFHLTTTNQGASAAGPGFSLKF
PROTOCOL CONDITIONS: displacement of SNS-032-Atto590 probe (0.002 μM) from CDK11A-p58 (0.032 uM), fluorescence polarization
Structures can show the parent of a compound that is named as a salt.
Answer each item with its documented DC50.
// return numeric value only (unit: nM, not printed)

Lookup: Report DC50 for CN1CCC(C(=O)Nc2n[nH]c3ccc(-c4ccc(F)c(F)c4F)cc23)CC1 [compound 128, hydrochloride] tested on UniProtKB Q9UQ88.
Found: 468

Lookup: Also, Cc1ccc(-c2ccc3[nH]nc(NC(=O)C4CCN(C)CC4)c3c2)c(F)c1 [cpd 119, hydrochloride] please.
Found: 665

Lookup: Now consider CN1CCC(C(=O)Nc2n[nH]c3ccc(-c4cccc(C#N)c4)cc23)CC1 [cpd 89, hydrochloride] .
Found: 784

Lookup: Another compound: O=C(Nc1n[nH]c2ccc(-c3cc(O)ccc3Cl)cc12)[C@@H]1CCCNC1 [cpd 41, hydrochloride]
Found: 33

Lookup: Record: N#Cc1ccc(Cl)c(-c2ccc3[nH]nc(NC(=O)[C@H]4CCCNC4)c3c2)c1 [compound 181, hydrochloride]
Found: 64

Lookup: Another compound to check: NCCC(=O)Nc1n[nH]c2ccc(-c3c(Cl)cccc3Cl)cc12 [compound 175, hydrochloride]
Found: 339

Lookup: Next: O=C(Nc1n[nH]c2ccc(-c3cc(-c4ncon4)ccc3Cl)cc12)[C@@H]1CCCNC1 [cpd 58, dihydrochloride]
Found: 20

Lookup: Then what about the compound N#Cc1ccc(Cl)c(-c2ccc3[nH]nc(NC(=O)C4CCCCNC4)c3c2)c1 (stereo not drawn) [compound 183, hydrochloride] ?
Found: 73

Lookup: Also check CCOc1ccc2[nH]nc(NC(=O)[C@@H]3CCCNC3)c2c1 [cpd 229, hydrochloride]
Found: 20

Lookup: Input O=C(Nc1n[nH]c2ccc(-c3cc(-c4nnco4)ccc3Cl)cc12)[C@@H]1CCCNC1 [cpd 59, trifluoroacetate]
Found: 57

Lookup: Thanks! And O=C(Nc1n[nH]c2ccc(-c3c(Cl)cccc3Cl)cc12)[C@H]1CCCNC1 [compound 170, hydrochloride] ?
Found: 177

Lookup: Request: CC(C)Oc1ccc2[nH]nc(NC(=O)[C@@H]3CCCNC3)c2c1 [cpd 230, hydrochloride]
Found: 27

Lookup: Record: O=C(Nc1n[nH]c2ccc(-c3c(Cl)cccc3Cl)cc12)[C@H]1CCNC1 [compound 168, hydrochloride]
Found: 98

Lookup: Again, but for Cc1ccc(-c2ccc3[nH]nc(NC(=O)[C@@H]4CCCNC4)c3c2)c(C(F)(F)F)c1 [cpd 36, hydrochloride]
Found: 65

Lookup: Consider next the compound CN1CCC(C(=O)Nc2n[nH]c3ccc(-c4cc(CO)ccc4Cl)cc23)CC1 in the same way.
Found: 446

###

TEST TARGET: CDK11A (Homo sapiens)
Sequence (Q9UQ88 346-783): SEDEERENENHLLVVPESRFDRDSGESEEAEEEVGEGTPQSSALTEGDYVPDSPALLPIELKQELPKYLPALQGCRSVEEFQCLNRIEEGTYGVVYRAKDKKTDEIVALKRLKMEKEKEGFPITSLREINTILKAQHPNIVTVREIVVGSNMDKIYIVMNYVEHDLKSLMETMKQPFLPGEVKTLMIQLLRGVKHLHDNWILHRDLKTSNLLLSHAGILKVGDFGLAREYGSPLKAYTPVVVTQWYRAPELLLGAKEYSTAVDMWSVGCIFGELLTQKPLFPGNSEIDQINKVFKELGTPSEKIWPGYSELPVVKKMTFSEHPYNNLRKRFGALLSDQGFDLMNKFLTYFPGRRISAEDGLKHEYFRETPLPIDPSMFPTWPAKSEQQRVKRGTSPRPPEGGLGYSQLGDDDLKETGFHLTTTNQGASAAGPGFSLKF
PROTOCOL CONDITIONS: displacement of SNS-032-Atto590 probe (0.002 μM) from CDK11A-p58 (0.032 uM), fluorescence polarization
Counter-ions that a name gives are not always drawn.
ENDPOINT: DC50
Please answer using the number first and the unit second.

Lookup: Fill in the blank: the reported DC50 of CC(C)OC(=O)c1ccc(Cl)c(-c2ccc3[nH]nc(NC(=O)[C@@H]4CCCNC4)c3c2)c1 [cpd 56, hydrochloride] is ____.
Found: 100 nM

Lookup: Quick one: COC(=O)c1cc(-c2ccc3[nH]nc(NC(=O)[C@@H]4CCCNC4)c3c2)c(F)cc1F [cpd 50, hydrochloride]
Found: 164 nM

Lookup: Then this molecule: O=C(Nc1n[nH]c2ccc(-c3ccc(C(F)(F)F)cc3Cl)cc12)[C@@H]1CCCNC1 [cpd 44, hydrochloride]
Found: 156 nM

Lookup: Also CC(C)c1ccc(Cl)c(-c2ccc3[nH]nc(NC(=O)[C@@H]4CCCNC4)c3c2)c1 [cpd 48, hydrochloride] , if possible.
Found: 310 nM

Lookup: Try this molecule too: COC(=O)c1ccc(C#N)c(-c2ccc3[nH]nc(NC(=O)[C@@H]4CCCNC4)c3c2)c1 [cpd 40, hydrochloride]
Found: 45 nM

Lookup: Cool, now CN1CCC(C(=O)Nc2n[nH]c3ccc(-c4ccc(Cl)cc4Cl)cc23)CC1 [cpd 106, hydrochloride]
Found: 259 nM

Lookup: Also NC(=O)c1ccc(Cl)c(-c2ccc3[nH]nc(NC(=O)C4CCCNC4)c3c2)c1 (stereo not shown) [cpd 9, hydrochloride] , if possible.
Found: 131 nM

###

TEST TARGET: CDK11A (Homo sapiens, UniProt Q9UQ88);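 also: compound preincubated 30 min with CDK11A-p58, then probe added and polarization (mP) read 15 min later, 0% displacement is probe plus enzyme, 100% is probe alone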
Sequence (Q9UQ88 346-783): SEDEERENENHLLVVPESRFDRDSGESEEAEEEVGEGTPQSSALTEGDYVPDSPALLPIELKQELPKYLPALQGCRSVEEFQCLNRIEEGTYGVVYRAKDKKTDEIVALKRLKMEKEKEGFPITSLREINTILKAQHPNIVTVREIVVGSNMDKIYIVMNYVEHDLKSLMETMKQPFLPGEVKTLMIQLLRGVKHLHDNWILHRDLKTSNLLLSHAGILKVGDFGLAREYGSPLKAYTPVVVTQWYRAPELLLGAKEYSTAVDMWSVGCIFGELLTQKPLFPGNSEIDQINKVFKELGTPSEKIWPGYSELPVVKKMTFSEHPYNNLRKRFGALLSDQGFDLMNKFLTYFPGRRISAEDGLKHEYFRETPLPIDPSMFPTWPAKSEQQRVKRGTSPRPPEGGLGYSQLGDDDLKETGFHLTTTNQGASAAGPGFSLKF
PROTOCOL CONDITIONS: displacement of SNS-032-Atto590 probe (0.002 μM) from CDK11A-p58 (0.032 uM), fluorescence polarization
Structures can show the parent of a compound that is named as a salt.
ENDPOINT: DC50 (nM)
Answer format: numeric, nM implied, no suffix.

Lookup: Which DC50 reading was recorded for the molecule CN1CCC(C(=O)Nc2n[nH]c3ccc(-c4c(Cl)cc(Cl)cc4Cl)cc23)CC1 [cpd 108, hydrochloride] ?
Found: 150

Lookup: Proceed to CC(=O)c1ccc(Cl)c(-c2ccc3[nH]nc(NC(=O)[C@@H]4CCCNC4)c3c2)c1 [cpd 33, hydrochloride]
Found: 19

Lookup: Likewise for O=C(Nc1n[nH]c2ccc(-c3ccc(O)cc3Cl)cc12)[C@@H]1CCCNC1 [cpd 6, hydrochloride] ?
Found: 23

Lookup: Another molecule to check: CC1(C)CCC(C(=O)Nc2n[nH]c3ccc(-c4cc(C#N)ccc4Cl)cc23)CN1 (single isomer, unassigned; (+)) [compound 202]
Found: 15

Lookup: For O=C(CC1CCNCC1)Nc1n[nH]c2ccc(-c3c(Cl)cccc3Cl)cc12 [compound 163, hydrochloride] then?
Found: 576

Lookup: How about O=C(Nc1n[nH]c2ccc(-c3cc(Cl)ccc3Cl)cc12)C1CCCNC1 (stereo not shown) [cpd 4, hydrochloride] ?
Found: 50

Lookup: What about CN1CCC(C(=O)Nc2n[nH]c3ccc(-c4cc([N+](=O)[O-])ccc4F)cc23)CC1 [cpd 115, hydrochloride] ?
Found: 165
